Task for the reader: assign each of the following molecules its reported α (relative inhibitory activity as compared with theophylline).
- System: 3',5'-Cyclic AMP Phosphodiesterase (PDE)
- EXPERIMENT_DESCRIPTION: Inhibition of 3',5'-cyclic AMP phosphodiesterase (PDE) isolated from rabbit kidney, low affinity (Fraction I, high Km)
- Type: biochemical
One number for each entry.

Hey, quick one: what's α (relative inhibitory activity as compared with theophylline) for each of these?
1. CCCc1nc(C)cc2nc(N)nn12
2. Cc1cc(C)n2nccc2n1 [H, 5,7-dimethyl pyrazolo[1,5-a]pyrimidine, reference compound]
3. Cc1cc(C)n2ncc(I)c2n1
4. CCOC(=O)c1cnn2c(C)cc(C)nc12
5. Cc1cc(C)n2ncc(Cl)c2n1
6. Cc1cc(C)n2ncc(Br)c2n1

**Result**
0.14
0.20
1.23
0.22
1.33
2.20
